target: Fibroblast growth factor receptor 1 (Homo sapiens)
Sequence (P11362 whole entry): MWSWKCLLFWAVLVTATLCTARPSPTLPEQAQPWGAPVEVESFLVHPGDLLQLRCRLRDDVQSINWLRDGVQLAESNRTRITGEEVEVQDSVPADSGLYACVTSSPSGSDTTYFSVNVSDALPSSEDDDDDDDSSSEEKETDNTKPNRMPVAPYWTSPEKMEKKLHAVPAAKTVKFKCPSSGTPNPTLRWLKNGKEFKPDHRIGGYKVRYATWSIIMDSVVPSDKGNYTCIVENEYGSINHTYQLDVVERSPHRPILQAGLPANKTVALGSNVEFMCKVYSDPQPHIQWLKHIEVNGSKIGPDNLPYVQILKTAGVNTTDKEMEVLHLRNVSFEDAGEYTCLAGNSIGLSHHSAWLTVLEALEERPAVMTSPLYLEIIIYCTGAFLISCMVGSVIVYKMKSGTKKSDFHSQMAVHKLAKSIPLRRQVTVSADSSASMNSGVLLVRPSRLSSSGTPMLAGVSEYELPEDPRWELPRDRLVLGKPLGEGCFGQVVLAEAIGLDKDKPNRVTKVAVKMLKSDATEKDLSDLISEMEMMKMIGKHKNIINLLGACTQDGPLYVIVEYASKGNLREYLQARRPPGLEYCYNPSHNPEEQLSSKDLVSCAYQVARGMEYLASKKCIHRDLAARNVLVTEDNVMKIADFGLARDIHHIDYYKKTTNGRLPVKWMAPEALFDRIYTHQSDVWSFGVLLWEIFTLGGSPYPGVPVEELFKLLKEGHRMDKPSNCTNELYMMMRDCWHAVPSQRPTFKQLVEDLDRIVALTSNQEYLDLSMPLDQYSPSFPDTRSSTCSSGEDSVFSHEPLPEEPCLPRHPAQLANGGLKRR
pIC50: −log10 of the molar value.
OUTCOME_MEASURE: pIC50

In: Test system Fibroblast growth factor receptor 1 (Homo sapiens); read-out pIC50; what value for C=CC(=O)N1CC[C@H](n2cc(-c3cc4ccccc4o3)c3c(N)n[nH]c(=O)c32)C1 ?
Out: > 8.00

----------
target: UniProt P07333; experiment: Inhibition of FMS (unknown origin)
Sequence (P07333 whole entry): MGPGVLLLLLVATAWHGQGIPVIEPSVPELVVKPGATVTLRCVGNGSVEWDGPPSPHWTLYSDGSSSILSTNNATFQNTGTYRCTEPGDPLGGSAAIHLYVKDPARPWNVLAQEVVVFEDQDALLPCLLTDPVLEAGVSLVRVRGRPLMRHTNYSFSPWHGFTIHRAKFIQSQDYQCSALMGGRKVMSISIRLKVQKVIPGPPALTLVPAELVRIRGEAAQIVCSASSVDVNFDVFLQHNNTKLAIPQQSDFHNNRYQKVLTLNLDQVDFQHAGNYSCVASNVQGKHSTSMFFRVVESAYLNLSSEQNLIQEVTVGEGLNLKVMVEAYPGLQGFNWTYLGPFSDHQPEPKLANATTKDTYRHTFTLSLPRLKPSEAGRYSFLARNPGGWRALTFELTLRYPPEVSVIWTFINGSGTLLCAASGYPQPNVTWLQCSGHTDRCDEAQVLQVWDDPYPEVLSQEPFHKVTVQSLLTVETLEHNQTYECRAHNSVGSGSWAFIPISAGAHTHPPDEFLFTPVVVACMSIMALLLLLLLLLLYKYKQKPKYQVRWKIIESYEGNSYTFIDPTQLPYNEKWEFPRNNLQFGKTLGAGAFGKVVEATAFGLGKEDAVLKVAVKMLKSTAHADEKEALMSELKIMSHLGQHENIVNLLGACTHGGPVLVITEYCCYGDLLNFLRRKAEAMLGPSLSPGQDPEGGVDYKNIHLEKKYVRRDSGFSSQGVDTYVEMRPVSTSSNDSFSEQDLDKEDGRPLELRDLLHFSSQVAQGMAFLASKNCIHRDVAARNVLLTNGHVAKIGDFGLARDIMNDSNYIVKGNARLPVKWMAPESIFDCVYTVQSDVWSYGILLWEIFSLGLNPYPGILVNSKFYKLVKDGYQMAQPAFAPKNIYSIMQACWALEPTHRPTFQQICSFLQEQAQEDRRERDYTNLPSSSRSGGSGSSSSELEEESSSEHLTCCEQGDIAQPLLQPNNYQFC
pIC50: −log10 of the molar value.
OUTCOME_MEASURE: pIC50

In: Missing value: pIC50, UniProt P07333, entry COc1ncc(CNc2ccc(Cc3c[nH]c4ncc(C(F)(F)F)cc34)c(F)n2)cc1F . Fill in?
Out: > 7.00

----------
target: Fibroblast growth factor receptor 3 (Homo sapiens)
Sequence (P22607 whole entry): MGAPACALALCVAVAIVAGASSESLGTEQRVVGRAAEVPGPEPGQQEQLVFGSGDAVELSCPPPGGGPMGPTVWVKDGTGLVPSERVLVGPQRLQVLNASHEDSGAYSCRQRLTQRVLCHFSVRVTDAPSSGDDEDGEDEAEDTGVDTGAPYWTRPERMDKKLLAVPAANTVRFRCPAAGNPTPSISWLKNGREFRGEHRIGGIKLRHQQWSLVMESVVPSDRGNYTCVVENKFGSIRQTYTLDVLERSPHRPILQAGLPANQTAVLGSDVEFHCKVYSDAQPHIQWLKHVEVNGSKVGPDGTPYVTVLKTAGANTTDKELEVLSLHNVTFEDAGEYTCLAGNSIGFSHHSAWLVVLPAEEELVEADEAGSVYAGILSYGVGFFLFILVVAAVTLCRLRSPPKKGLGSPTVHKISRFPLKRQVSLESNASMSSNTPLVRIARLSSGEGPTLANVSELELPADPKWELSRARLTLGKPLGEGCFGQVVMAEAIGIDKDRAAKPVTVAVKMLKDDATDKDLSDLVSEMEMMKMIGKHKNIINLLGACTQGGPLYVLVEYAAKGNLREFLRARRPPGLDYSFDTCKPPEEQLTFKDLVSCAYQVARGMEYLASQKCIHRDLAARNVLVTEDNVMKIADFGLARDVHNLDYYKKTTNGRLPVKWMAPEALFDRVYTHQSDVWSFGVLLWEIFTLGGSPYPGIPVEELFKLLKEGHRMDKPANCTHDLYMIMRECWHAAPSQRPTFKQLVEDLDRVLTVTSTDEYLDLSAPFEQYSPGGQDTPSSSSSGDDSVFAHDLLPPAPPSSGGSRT
pIC50: −log10 of the molar value.
OUTCOME_MEASURE: pIC50

In: Fill in: pIC50 of C=CC(=O)N1CC[C@H](n2cc(-c3cc4ccccc4o3)c3c(N)n[nH]c(=O)c32)C1 is ___
Out: > 8.00

----------
biological target: Tyrosine-protein kinase BTK (Homo sapiens, UniProt Q06187)
Sequence (Q06187 whole entry): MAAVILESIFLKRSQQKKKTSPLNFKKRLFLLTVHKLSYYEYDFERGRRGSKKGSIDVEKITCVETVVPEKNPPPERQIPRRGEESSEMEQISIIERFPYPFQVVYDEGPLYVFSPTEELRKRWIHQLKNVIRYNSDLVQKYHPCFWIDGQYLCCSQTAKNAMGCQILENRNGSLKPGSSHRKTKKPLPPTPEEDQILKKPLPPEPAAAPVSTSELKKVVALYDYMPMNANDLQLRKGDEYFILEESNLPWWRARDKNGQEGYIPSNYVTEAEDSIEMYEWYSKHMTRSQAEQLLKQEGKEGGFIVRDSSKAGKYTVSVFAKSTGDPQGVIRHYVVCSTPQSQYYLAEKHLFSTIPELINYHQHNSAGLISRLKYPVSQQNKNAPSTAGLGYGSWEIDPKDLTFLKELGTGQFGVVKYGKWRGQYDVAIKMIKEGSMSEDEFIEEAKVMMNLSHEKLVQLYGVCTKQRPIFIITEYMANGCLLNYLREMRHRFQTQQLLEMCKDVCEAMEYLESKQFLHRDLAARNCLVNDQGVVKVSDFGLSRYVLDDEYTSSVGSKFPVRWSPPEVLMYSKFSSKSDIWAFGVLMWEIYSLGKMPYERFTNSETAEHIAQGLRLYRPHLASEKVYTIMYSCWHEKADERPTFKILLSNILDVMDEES
OUTCOME_MEASURE: IC50

In: Return reported IC50; argument: COc1ccc(F)cc1C(=O)NCc1ccc(-c2nn(C3CCCC3)c3c(=O)[nH]nc(N)c23)cc1
Out: 0.5 nM

----------
Molecular target: Adenosine receptor A1 (Homo sapiens, UniProt P30542)
Sequence (P30542 whole entry): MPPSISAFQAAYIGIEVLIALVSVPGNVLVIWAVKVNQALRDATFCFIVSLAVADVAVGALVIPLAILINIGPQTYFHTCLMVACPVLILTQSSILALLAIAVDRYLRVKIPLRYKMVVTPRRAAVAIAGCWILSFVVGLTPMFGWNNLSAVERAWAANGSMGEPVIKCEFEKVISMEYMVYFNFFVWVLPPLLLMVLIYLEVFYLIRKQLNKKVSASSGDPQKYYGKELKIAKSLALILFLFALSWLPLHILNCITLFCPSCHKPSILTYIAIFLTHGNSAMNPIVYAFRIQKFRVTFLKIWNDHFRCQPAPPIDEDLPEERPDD
OUTCOME_MEASURE: pKi
The scale used: pKi is minus the common logarithm of the concentration in molar units.

In: # pKi lookup, item O=c1[nH]nc(NC2CCCC2)c2nnn(Cc3cccs3)c12
Out: 7.33

----------
target: Receptor-type tyrosine-protein kinase FLT3 (Homo sapiens)
OUTCOME_MEASURE: IC50

In: # query: IC50 | item COc1ncc(CNc2ccc(Cc3c[nH]c4ncc(C(F)(F)F)cc34)c(F)n2)cc1F | system: Receptor-type tyrosine-protein kinase FLT3 (Homo sapiens)
Out: < 100 nM

----------
biological target: Receptor-type tyrosine-protein kinase FLT3 (Homo sapiens, UniProt P36888, D835Y); test: Inhibition of FLT3 D835Y (unknown origin)
OUTCOME_MEASURE: IC50 (nM)
Please state the figure in nM; there is no need to write the unit.

In: Given CN(C)S(=O)(=O)Nc1cccc(-c2cnn(-c3ccc(C(F)(F)F)cc3)c2)c1 , state its recorded IC50.
Out: 1830

----------
target: UniProtKB P04629
Sequence (P04629 whole entry): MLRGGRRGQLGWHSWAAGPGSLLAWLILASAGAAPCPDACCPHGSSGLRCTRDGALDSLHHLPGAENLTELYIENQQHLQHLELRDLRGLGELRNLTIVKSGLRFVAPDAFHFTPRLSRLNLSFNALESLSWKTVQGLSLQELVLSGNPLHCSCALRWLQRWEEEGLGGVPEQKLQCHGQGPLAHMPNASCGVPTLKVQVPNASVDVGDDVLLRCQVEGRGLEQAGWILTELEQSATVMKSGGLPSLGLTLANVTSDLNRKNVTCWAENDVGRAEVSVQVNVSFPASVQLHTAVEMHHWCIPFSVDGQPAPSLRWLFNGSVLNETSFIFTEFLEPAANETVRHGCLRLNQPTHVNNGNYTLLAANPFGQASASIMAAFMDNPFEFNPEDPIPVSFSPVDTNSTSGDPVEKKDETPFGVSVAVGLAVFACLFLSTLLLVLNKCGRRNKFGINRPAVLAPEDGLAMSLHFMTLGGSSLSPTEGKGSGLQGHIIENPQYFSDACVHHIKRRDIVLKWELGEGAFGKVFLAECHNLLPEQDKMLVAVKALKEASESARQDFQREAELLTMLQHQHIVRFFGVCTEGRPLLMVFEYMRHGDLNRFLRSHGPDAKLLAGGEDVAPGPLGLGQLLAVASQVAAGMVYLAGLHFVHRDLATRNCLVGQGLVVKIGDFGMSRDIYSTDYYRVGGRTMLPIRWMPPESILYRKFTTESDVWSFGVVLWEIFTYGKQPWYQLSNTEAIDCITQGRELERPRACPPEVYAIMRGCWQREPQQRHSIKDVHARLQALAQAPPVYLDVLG
OUTCOME_MEASURE: pIC50
By convention, pIC50 is the negative base-10 log of a molar concentration.

In: Find the measured pIC50: item CN(C)S(=O)(=O)Nc1cccc(-c2cnn(-c3ccc(C(F)(F)F)cc3)c2)c1 , target or system UniProtKB P04629.
Out: 5.24
